target: AVP-V1 sites (Rattus norvegicus); assay: [3H]AVP radioligand binding to male rat liver crude membrane preparation (AVP-V1 sites); conditions: male rat liver membranes; 1 nM [3H]AVP; 30 min at 30° C.; read-out: Receptor Binding Results IC50 (nM) [^3 H]-AVP-V1
Sequence (P30560 whole entry): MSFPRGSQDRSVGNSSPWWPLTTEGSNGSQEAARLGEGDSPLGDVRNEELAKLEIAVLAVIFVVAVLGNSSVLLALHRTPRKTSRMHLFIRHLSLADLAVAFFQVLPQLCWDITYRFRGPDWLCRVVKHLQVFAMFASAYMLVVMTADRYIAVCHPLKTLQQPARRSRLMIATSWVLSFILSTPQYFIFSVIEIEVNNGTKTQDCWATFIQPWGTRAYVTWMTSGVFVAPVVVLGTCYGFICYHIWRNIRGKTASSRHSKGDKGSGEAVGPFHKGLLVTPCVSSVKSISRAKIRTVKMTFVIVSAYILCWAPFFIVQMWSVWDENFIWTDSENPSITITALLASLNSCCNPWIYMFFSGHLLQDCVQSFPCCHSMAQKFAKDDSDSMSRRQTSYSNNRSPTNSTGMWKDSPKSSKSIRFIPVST
*1 amine or outer side, *2 acyl side, *3 side chain or, on linkers, in order; H or OH if unused. Where a SMILES comes first, the peptide text is derived from it. [ ]: non-standard residue; d: D form. X10 = O=C1CC[C@@H](C(=O)[*:2])N([*:1])N1; X1 = O=C([C@H]1CCCNN1[*:1])[*:2]; dNMeF = CN[C@H](Cc1ccccc1)C(=O)O
measurementKind: IC50 (nM)
Quick note: give the figure in nM, leave out the unit.

Prompt: Recorded IC50 of CC[C@H](C)[C@@H]1NC(=O)[C@@H](Cc2ccccc2)NC(=O)[C@@H]2CCCN2C(=O)[C@@H](Cc2ccccc2)N(C)C(=O)[C@@H]2CCC(=O)NN2C(=O)[C@H]2CCCNN2C1=O [Example 4] (cyclo(I[X1][X10][dNMeF]P[dF])) , please.
Completion: 13900
